B1: TPR t1 (parent)
chain: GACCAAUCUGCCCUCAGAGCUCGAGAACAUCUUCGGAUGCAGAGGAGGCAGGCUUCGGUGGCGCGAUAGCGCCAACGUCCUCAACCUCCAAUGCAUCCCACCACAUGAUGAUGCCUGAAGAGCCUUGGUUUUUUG

- Variants of: B1
- protocolDescription: polymerase ribozyme fitness, log enrichment relative to wild type (log ratio); higher = more active; in vitro selection for triplet polymerase activity
Measured polymerase ribozyme fitness (log ratio), listed per entry for reference.
outcomeMeasure: polymerase ribozyme fitness (log ratio)

1. C3U C40U U54C U92G :: -3.03
2. U38G C82G A95G :: -2.72
3. C11U A41G C104A C123U U125C :: -1.19
4. A18G U59A A111U :: -6.09
5. C72G U92A U126G U129A :: -6.86
6. U32C G61U C85G :: -3.56
7. C82G A83C C115G G122A :: -2.67
8. G77C G93A :: -0.532
9. G44U C124A :: 1.15
10. C62U U126G :: -3.05
11. A26U G61A :: -3.03
12. C70U C114U :: -2.88
13. A5U G10A G36C G60C U78C C124U :: -2.58
14. U109G U132A :: -3.91
15. U9C C20A A37G G47A U87G G120A G122U :: -3.6
16. G47C G71C G117U :: -4.58
17. C40U G61C C88A :: -2.87
18. A83G U112C U131A :: 1.02
19. C20G G122A :: -4
20. G52A U130C :: -0.159
21. C13U C15G A18U A66U :: -5.7
22. C3U C13U C34U C62U C85U :: -5.63
